Each recorded value in this set is attributed to the supplement of paper PMC12042874.

Assignment: determine reported amyloid nucleation score for the given substances.
Test: amyloid nucleation score (Sup35N fusion, yeast selection) (log enrichment); library NNK1; higher = more nucleation; inactive = no reads after selection;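 also: zero at mode of non-aggregating sequences after 7 days selection at 30°C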
Number, no unit, nothing else.

Task: Name the reported amyloid nucleation score value associated with the substance LSSSGFWYWFT
Output: -0.251

Task: Same for RYISYAKCRNYNGLIMYYLY
Output: 2.52

Task: Record: HNHRRQDGIRNA
Output: 1.12

Task: Another substance to check: EVATGSGERIQLCQVQSVNT
Output: 1.6

Task: Do the same for TKWTGVFIWSLKAD please
Output: -0.051

Task: WGMCFAVPNISTGLNNYTMP ?
Output: -0.234

Task: Here is the next substance: GMPGHFLLLKLGYFANRTNR
Output: -1.25

Task: Another substance to look at: TIQMFAVSTCCFFRFTLHWN
Output: -0.598

Task: Item: SFLDCLRCCKCAGMR
Output: 1.5

Task: Please give the result for LQNETLSMSMRLLMAYFIKL too.
Output: 0.13

Task: Proceed to VLSRLCLYVSVMSRDNKYGS
Output: 2.38

Task: CFLIVHLNSRSDTCHEGSEC ?
Output: -0.081

Task: Query CSRTRRSHSIECACCKYIFA next
Output: -0.343

Task: Please answer likewise for VWRTYVGPVCSMLAG
Output: 0.641

Task: Also YSMSRMIIKVKLQRHVMNYS ?
Output: -0.88

Task: Field entry: IYTSLCQRGGMVMHESKYCC
Output: 0.624

Task: Would you kindly repeat that for TNSFYYGSVSTCYSRCNCKF ?
Output: 7.36

Task: Item: DYDTMSNFSDSALCTPIRCD
Output: 0.485

Task: Query VRVKLKGLFGFNWDG next
Output: 0.36

Task: Same question, ASYTIND this time
Output: -0.57

Task: Subsequent entry: IFEIAESDLVYDHFSHYFKR
Output: -0.033

Task: # repeat for RFLGSWCSIYIGRCVMFDRG
Output: 1.13

Task: Let us now turn to KRLDVKMVLPEVRFRLDVSL
Output: 0.732

Task: Further, for TPVTRIILVVVIRVPSGSGY ?
Output: -1.03

Task: Again, but for ILGWHGIRFVFRTALFRR
Output: -0.286

Task: Same question, YYGYVLFQGFSM this time
Output: 1.82

Task: And for ALNLKCIRLSGV ?
Output: 0.496

Task: Try QCGEICLCRSAGVVHSPRGW next.
Output: -0.513

Task: What do you have for MCDDHWFPAIYKRLVSSNKQ ?
Output: 1.87

Task: Try this substance too: LGMKSVKWL
Output: 0.345
